Data provenance is patent US20200347144A1.

Please go through the items and note down their average fluorescence intensity.
Biological target: T1, monkey 4-1BB on CHOK1 cells (monkey)
T1 construct: whole, on cells; also called CHOK1-c4-1BB
Assay: FACS, CHOK1-c4-1BB cells; Ab 0.0032 ug/ml
Numbers only, in MFI.

Please give the measured average fluorescence intensity for this binder: 100F3C4 (antibody, V domains shown) VH: QVQLQESGPGLVKPSGTLSLTCAVSGGSISSSNWWSWVRQPPGKGLEWIGEIYHSGSTNYNPSLKSRVTMSVDKSKNQFSLELRSVTAADTAVYYCARDAVDAYYYYYGMDVWGQGTTVTVSS VL: DIQLTQSPSFLSASVGDRVTITCRASQGISSYLAWYQQKPGKAPKLLIYAASTLQSGVPSRFSGSGSGTEFTLTISSLQPEDFATYYCQHLNSYPFTFGPGTKVDLK 5.4

I have 2 binders here; please give me average fluorescence intensity for each one.
1. 52F4G2 (antibody, V domains shown) VH: QVQLQESGPGLVKPSETLSLTCAVSGYSISSGYYWGWIRQPPGKGLEWIGSIFHSGSSYYNPSLKSRVTISVDTSKNQFSLKLRSVTAADTAVYYCARESSGWNCFDYWGQGTLVTVSS VL: DIQMTQSPSTLSASVGDRVTITCRASQTISTWLAWYQQKPGKAPKLLIYKASNLESGVPSRFSGSGSGTEFTLTISSLQPDDFATYYCQQYNSYSITFGQGTRLEIK
2. 11H10C9 (antibody, V domains shown) VH: QVQLVESGGGVVQPGRSLRLSCAASGFTFSSYAMHWVRQAPGKGLEWVAIIWYDGSNQYYADSVKGRFTISRDNSMNTLYLQMNSLRAEDTAVYYCARVEQWLVSYFDFWGQGTLVTVSS VL: EIVMTQSPATLSVSPGERATLSCRASQSVSSNLAWYQQKPGQVPRLLIYGASTRATGIPARFSGSGSGTEFTLTISSLQSEDFAVYYCQQYNNWPTFGGGTKVEIK

[13.7, 10.4]
